target: cAMP-dependent protein kinase catalytic subunit beta (Homo sapiens) + cAMP-dependent protein kinase type II-beta regulatory subunit (Homo sapiens) (UniProt P22694+P31323); test: activators of PKA-R2B holoenzyme, primary screen, biochemical, fluorescence polarization, Cy5-IP20, human (AID 504700); conditions: PKA-R2B holoenzyme dissociation, at 11.4 µM, stronger effect = higher value, 0% DMSO only, 100% 113 µM cGMP, R2B truncated from residue 108, S112A mutant;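 further: higher means more holoenzyme dissociation and a rise in polarization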
Sequence (P31323 whole entry, looked up, other chains not shown, the tested form may be a part): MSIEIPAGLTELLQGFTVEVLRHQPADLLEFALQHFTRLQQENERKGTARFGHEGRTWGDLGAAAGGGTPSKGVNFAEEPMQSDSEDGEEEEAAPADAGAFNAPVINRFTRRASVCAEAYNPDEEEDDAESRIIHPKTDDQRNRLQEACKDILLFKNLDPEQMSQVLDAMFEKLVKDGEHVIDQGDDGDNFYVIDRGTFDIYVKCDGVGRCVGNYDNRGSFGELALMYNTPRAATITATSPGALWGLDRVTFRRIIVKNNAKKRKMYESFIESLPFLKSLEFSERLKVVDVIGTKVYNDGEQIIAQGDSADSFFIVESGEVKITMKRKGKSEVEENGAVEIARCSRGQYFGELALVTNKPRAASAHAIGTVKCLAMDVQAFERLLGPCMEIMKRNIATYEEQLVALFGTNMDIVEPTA
Hit rate of the full screen: of about 340,000 compounds, about 270 (0.079%) were called active. Shown is part of a subset that was picked to be rich in actives.
recordedMetric: activation

• COc1ccc([N+](=O)[O-])cc1NC(=O)C(C)OC(=O)C1c2ccccc2Oc2ccccc21 (stereo not given) = -4.93% (inactive)
• Cc1cccc(C(=O)NC2CCN(CC(=O)Nc3cccc(Cl)c3)CC2)c1 = -3.65% (inactive)
• COc1ccccc1C1SCCN1C(=O)c1ccc([N+](=O)[O-])cc1 (stereo not given) = 0.16% (inactive)
• COc1ccc(C(CNC(=O)c2ccc(OCc3cscn3)cc2)N2CCCC2)cc1 (stereo not given) = 3.82% (inactive)
• CC(C)[C@H](NC(=O)c1ccccc1F)C(=O)Nc1cccc(S(=O)(=O)N2CCOCC2)c1 = 4.82% (inactive)
• O=C(CCc1ccc(O)cc1)NN=Cc1cc(Br)ccc1O = -5.67% (inactive)
• C[C@@H]1Cn2cnc(C(=O)Nc3ccc(CNC(=O)OC(C)(C)C)cc3)c2C(=O)N1 = -0.19% (inactive)
• O=C(OCc1cn([C@H]2C[C@H](c3ccccc3)N(C(=O)c3cccs3)C[C@@H]2O)nn1)c1ccccc1 = 4.15% (inactive)
• S=C(NN=Cc1ccccn1)Nc1ccccn1 = 12.6% (inactive)
• O=C(C[C@H]1C[C@@H]2c3cc(NC(=O)C4CCC4)ccc3O[C@@H]2[C@H](CO)O1)NC1CCCCC1 = -4.88% (inactive)
• Cc1csc(=O)n1CCC(=O)OCC(=O)Nc1ccc(N2CCOCC2)cc1 = -13.7% (inactive)
• CC(=O)NC(Cc1ccc(F)c(F)c1)C(=O)NC1CCN(C(=O)c2ccc(C)cc2)CC1 (stereo not given) = -1.79% (inactive)
• COc1ccccc1-n1c(SCC(=O)Nc2ccc(Cl)cc2)nc(O)c(Cc2ccccc2)c1=O = 0.18% (inactive)
• COc1cc2nnn(-c3ccncc3)c2cc1OC = 5.36% (inactive)
• Cc1ccn2c(-c3csc(Nc4ccc(C(=O)O)cc4)n3)c(C)nc2c1 = -9.54% (inactive)
• CCOC(=O)c1cc(-c2sc(NC(=O)c3ccccc3)nc2C)n(CCO)n1 = -2.07% (inactive)
• Cc1cc2c3ccccc3[nH]c(=O)n2n1 = -8.33% (inactive)
• CN(c1ccccc1)S(=O)(=O)c1ccc(C(=O)NCc2cccnc2)cc1 = -3.42% (inactive)
• COc1cccc(OCC(=O)NCCS(=O)(=O)N2CCN(c3ccccc3)CC2)c1 = 0.99% (inactive)
• CCN(CC(=O)Nc1ccc(NC(C)=O)cc1)C(=O)C1CC(=O)N(c2ccc3c(c2)OCCO3)C1 (stereo not given) = 1.33% (inactive)
• COCOCCn1cc(CN2CCS(=O)(=O)N(Cc3ccc(-c4ccc(OC)cc4)cc3)C(CC(C)C)C2=O)nn1 (stereo not given) = -14.1% (inactive)
• Cc1ccc(S(=O)(=O)N2C[C@H]3n4c(=O)ccc(=O)n4C[C@H](OC(=O)NC4CCCC4)[C@@]3(O)C2)cc1 = 8.63% (inactive)
• O=C(C1CCCO1)N1CCN(C(=O)C23CC4CC(CC(C4)C2)C3)CC1 (stereo not given) = 7.92% (inactive)
• COc1cc(C)c(CN2CCN(C(=O)CCC(=O)c3ccc(C)s3)CC2)cc1OC = -4.23% (inactive)
• C[C@H]1Cn2cnc(C(=O)N[C@H](C)c3ccccc3)c2C(=O)N1 = 1.6% (inactive)
• C=CCn1nc(C(=O)OCC)cc1-c1sc(NC(=O)c2ccccc2)nc1C = 4.98% (inactive)
• COc1ccc(S(=O)(=O)N2CCCCC2)cc1C(=O)NC1CCS(=O)(=O)C1 (stereo not given) = -9.4% (inactive)
• COc1ccc(CC(NC(C)=O)C(=O)NC2CCN(C(=O)c3ccc(Cl)cc3)CC2)cc1 (stereo not given) = 19.4% (active)
• CCOC(=O)c1cc(-c2sc(NC(=O)c3ccccc3)nc2C)n(Cc2ccccc2)n1 = -0.16% (inactive)
• CN1OC[C@@H]2CN(C(=O)c3ccc(-c4ccccc4)cc3)[C@H](c3ccc(-c4cccc(F)c4)cc3)C[C@@H]21 = -8.75% (inactive)
• COc1ccc(CC(NC(C)=O)C(=O)NC2CCN(C(=O)c3ccc(OC)c(OC)c3)CC2)cc1OC (stereo not given) = -5.58% (inactive)
• O=C(CCN1CCCCC1)Nc1ccc(F)c(F)c1 = -4% (inactive)
• C=CCOc1cccc(C2C(C(=O)c3ccc(C)o3)=C(O)C(=O)N2CCN2CCOCC2)c1 (stereo not given) = 2.21% (inactive)
• O=c1[nH]c2ccccc2n1C1CCN(CCOc2ccccc2)CC1 = -11% (inactive)
• O=C(N=C1SC2CS(=O)(=O)CC2N1Cc1ccccc1)c1ccccc1 (stereo not given) = 1.79% (inactive)
• COc1cc(C(=O)N2CCOC23CCN(Cc2ccccc2)CC3)cc(OC)c1OC = 5.01% (inactive)
• CC1=C(C(=O)N2CCOCC2)CC(CC(=O)NCC2CCCCC2)C(=O)N1Cc1ccc(F)cc1 (stereo not given) = -0.55% (inactive)
• N#CC1(Nc2ccc3c4c(cccc24)CC3)CCCCC1 = -2.43% (inactive)
• CCOc1ccc(S(=O)(=O)NCCC(=O)NNC(=O)c2ccc(F)cc2)cc1 = -0.05% (inactive)
• COc1ccccc1-c1n[nH]nc1C1=CC(=O)CC(C)(C)C1 = -8.69% (inactive)

Reference for the values: PubChem BioAssay AID504700
